Target System: T1, recombinant human TL1A (human, UniProt O95150 71-251)
T1 chain: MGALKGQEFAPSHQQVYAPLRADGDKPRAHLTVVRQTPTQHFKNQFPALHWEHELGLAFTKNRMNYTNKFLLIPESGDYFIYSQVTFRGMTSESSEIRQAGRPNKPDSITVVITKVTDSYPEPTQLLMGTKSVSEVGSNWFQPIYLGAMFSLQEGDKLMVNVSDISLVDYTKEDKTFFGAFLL
Assay Summary: cell-based or functional assay
Output Fulfilled for records whose TF-1 NF-κB reporter cell bioassay IC50 is lower than 50 nM, Not fulfilled for records at or above 50 nM.

Some solved cases for reference:
TL1A-0292 (antibody, human IgG1, kappa, V domains shown, human IgG1 effector-function-minimized/kappa) VH: QVQLVQSGAEVKKPGASVKVSCKASGYDFTYYGVSWVRQAPGQGLEWMGWISTYNTVTHYAPSLQGRVTMTTDTSTSTAYMELRSLRSDDTAVYYCARESYYGSGAFRGGMDVWGQGTTVTVSS VL: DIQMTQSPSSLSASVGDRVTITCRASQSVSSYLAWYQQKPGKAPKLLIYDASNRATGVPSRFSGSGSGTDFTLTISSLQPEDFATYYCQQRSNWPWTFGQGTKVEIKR = Not fulfilled
TL1A-0294 (antibody, human IgG1, kappa, V domains shown, human IgG1 effector-function-minimized/kappa) VH: QVQLVQSGAEVKKPGASVKVSCKASGYDFTYYGVSWVRQAPGQGLEWMGWISTYNTNTHYAPSLQGRVTMTTDTSTSTAYMELRSLRSDDTAVYYCARESYYGSGAFRGGMDVWGQGTTVTVSS VL: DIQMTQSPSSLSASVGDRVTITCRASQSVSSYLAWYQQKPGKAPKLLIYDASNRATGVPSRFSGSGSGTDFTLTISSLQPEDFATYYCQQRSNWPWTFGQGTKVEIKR = Not fulfilled
TL1A-0265 (antibody, human IgG1, kappa, V domains shown, human IgG1 effector-function-minimized/kappa) VH: QVQLVQSGAEVKKPGASVKVSCKASGYDYTYYGISWVRQAPGQGLEWMGWISTYNTVTHYAPSLQGRVTMTTDTSTSTAYMELRSLRSDDTAVYYCARESYYGSGAHRGGMDVWGQGTTVTVSS VL: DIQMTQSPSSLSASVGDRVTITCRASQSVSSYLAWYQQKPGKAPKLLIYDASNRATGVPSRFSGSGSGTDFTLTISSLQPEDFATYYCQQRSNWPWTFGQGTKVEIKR = Fulfilled
TL1A-0042 (antibody, human IgG1, kappa, V domains shown, parental heavy chain with IGKV1-39*01 light chain; human IgG1 effector-function-minimized/kappa) VH: QVQLVQSGAEVKKPGASVKVSCKASGYDFTYYGISWVRQAPGQGLEWMGWISTYNGNTHYARMLQGRVTMTTDTSTRTAYMELRSLRSDDTAVYYCARENYYGSGAYRGGMDVWGQGTTVTVSS VL: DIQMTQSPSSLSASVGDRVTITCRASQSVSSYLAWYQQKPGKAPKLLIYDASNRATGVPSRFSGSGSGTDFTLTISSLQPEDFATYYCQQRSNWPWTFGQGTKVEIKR = Fulfilled

Proceed to the following item.
Ask: Identify whether the binder TL1A-0308 (antibody, human IgG1, kappa, V domains shown, human IgG1 effector-function-minimized/kappa) VH: QVQLVQSGAEVKKPGASVKVSCKASGYDFTYYGIGWVRQAPGQGLEWMGWISTYNTNTHYAPSLQGRVTMTTDTSTSTAYMELRSLRSDDTAVYYCARESYYGSGAFRGGMDVWGQGTTVTVSS VL: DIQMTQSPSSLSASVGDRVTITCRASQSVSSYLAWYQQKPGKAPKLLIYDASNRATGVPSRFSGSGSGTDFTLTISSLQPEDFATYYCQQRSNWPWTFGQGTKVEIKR records TF-1 NF-κB reporter cell bioassay IC50 below 50 nM.
Result: Fulfilled
